GI50 values for the molecules below.
test system: OVCAR-4 ovarian; assay: NCI tumour cell line growth inhibition, 48 h

molecule	GI50
C/C(=N\NC(=S)N1CCC1)c1ccccn1	0.00312 µM
C[C@]12CCc3nc(Nc4ccc(O)cc4)sc3C1=CC[C@@H]1[C@@H]2CC[C@]2(C)/C(=N/NC(N)=S)CC[C@@H]12	1.6 µM
O=C(CI)NC(=O)NC(=O)NCc1ccccc1	4.42 µM
NC1=NC(c2ccccc2Cl)c2c(n[nH]c2N)N1 (stereo unspecified)	> 100 µM
O=c1[nH]c2ccccc2cc1-c1nnc(Cc2ccccc2)o1	4.23 µM
Nc1ncnc2c1c(-c1ccc(Oc3ccccc3)cc1)nn2CC1SSCC1O (stereo unspecified)	2.2 µM
Cc1ccc2ccc3c4ccccc4ccc3c2c1	17 µM
Cc1ccc(C(=O)Nc2ccc(Oc3cc4cnn(C)c4cc3-c3cn[nH]c3)c(F)c2)c(=O)n1-c1ccc(F)cc1	> 100 µM
OCc1ccc(-c2ccc(-c3ccc(CO)o3)o2)o1	> 41.3 µM
S=C(Sc1ccc(Cl)cc1)Sc1ccc(Cl)cc1	3.03 µM
N#CN1CC[C@H](C(=O)Nc2ncc(-c3ccccc3)s2)C1	0.673 µM
